Origin of the recorded values: PubChem BioAssay (NCATS)

Tested on: SKOV3
Assay: Primary qHTS to identify gynecologic anti-cancer compounds using libraries of approved drugs and bioactive compounds (AID 1345084); also: % is scaled to controls: 0 for no effect and ±100 for the full control effect; nearly all actives have a fitted effect of over 55% in size
Conditions: Gynecologic cancer cell panel viability, ATPlite luminescence, 48 h; series mostly up to 57.5 µM
Results filed as inconclusive are left out. Active and inactive are the calls of the source. Calls follow the shape of the dose curve; as a rule, active = well fitted cell-killing curve with a large enough effect; inconclusive = small, poorly fitted or top-dose-only effect, or effect the other way; inactive = flat fitted curve, though single readings scatter.
Reported activity change, negative = cytotoxicity values are given for each entry in this list.
MEASUREMENT TYPE: activity change, negative = cytotoxicity

1) CC(CCC1(O)OC2CC3C4CCC5CC(O[C@@H]6O[C@H](CO)[C@@H](O)[C@H](O)[C@H]6O[C@@H]6O[C@@H](C)[C@H](O)[C@@H](O)[C@H]6O)C(O)CC5(C)C4CCC3(C)C2C1C)CO[C@@H]1O[C@H](CO)[C@@H](O)[C@H](O)[C@H]1O (some centres undefined) ... 3.64% [at 11.6 µM] (inactive)
2) C[C@@H]1O[C@@H](O[C@@H]2CO[C@@H](O[C@H]3CC[C@@]4(C)C(CC[C@]5(C)C4CC=C4[C@@H]6CC(C)(C)CC[C@]6(C(=O)O[C@@H]6O[C@H](CO)[C@@H](O)[C@H](O)[C@H]6O)CC[C@]45C)[C@]3(C)CO)[C@H](O)[C@H]2O[C@@H]2O[C@H](CO)[C@@H](O)[C@H](O)[C@H]2O)[C@H](O)[C@H](O)[C@H]1O (some centres undefined) ... 6.8% [at 11.6 µM] (inactive)
3) C=C(C)C1CCC2(C(=O)O[C@@H]3O[C@H](CO[C@@H]4O[C@H](CO)[C@@H](O)[C@H](O)[C@H]4O)[C@@H](O)[C@H](O[C@@H]4O[C@@H](C)[C@H](O)[C@@H](O)[C@H]4O)[C@H]3O)CCC3(C(=O)O)C(CCC4C5(C)CCC(O)C(C)(C)C5CCC43C)C12 (some centres undefined) ... -5.29% [at 11.6 µM] (inactive)
4) CC1(C)CC[C@@]2(C(=O)O[C@@H]3O[C@H](CO)[C@@H](O)[C@H](O)[C@H]3O)C(C1)C1=CCC3[C@@]4(C)CC[C@@H](O[C@@H]5O[C@H](C(=O)O)[C@@H](O[C@@H]6OC[C@@H](O)[C@H](O)[C@H]6O)[C@H](O[C@@H]6OC[C@](O)(CO)[C@H]6O)[C@H]5O)C(C)(C)C4CC[C@@]3(C)[C@]1(C)C[C@H]2O (some centres undefined) ... -2.96% [at 11.6 µM] (inactive)
5) COC1CC(OC2CCC3(C)C(=CCC4C3C(OC(C)=O)C(OC(=O)/C=C/c3ccccc3)C3(C)C(C(C)O)CCC43O)C2)OC(C)C1OC1CC(OC)C(OC2OC(C)C(OC3OC(CO)C(O)C(O)C3O)C(OC)C2O)C(C)O1 (centres undefined) ... -8.31% [at 6.55 µM] (inactive)
6) CC1OC(OC2C(CO)OC(OCC3OC(OC(=O)C45CCC(C)(C)CC4C4=CCC6C7(C)CCC(OC8OC(CO)C(O)C(OC9OC(CO)C(O)C(O)C9O)C8O)C(C)(C)C7CCC6(C)C4(C)CC5)C(O)C(O)C3O)C(O)C2O)C(O)C(O)C1OC1OC(CO)C(O)C(O)C1O (centres undefined) ... 13.6% [at 6.55 µM] (inactive)
7) CC(=O)O[C@H]1C(=O)[C@@]2(C)[C@H]([C@H](OC(=O)c3ccccc3)[C@]3(O)C[C@H](OC(=O)[C@H](O)[C@@H](NC(=O)c4ccccc4)c4ccccc4)C(C)=C1C3(C)C)[C@]1(OC(C)=O)CO[C@@H]1C[C@@H]2O ... 0% [at 11.6 µM] (inactive)
8) C[C@@H]1CC[C@]2(C(=O)O[C@@H]3O[C@H](CO)[C@@H](O)[C@H](O)[C@H]3O)CC[C@]3(C)C(=CCC4[C@@]5(C)C[C@@H](O)[C@H](O)[C@@](C)(C(=O)O[C@H]6[C@H](O)C[C@@]7(C)C(CC[C@]8(C)C7CC=C7[C@H]9[C@](C(=O)O[C@@H]%10O[C@H](CO)[C@@H](O)[C@H](O)[C@H]%10O)(CC[C@@H](C)[C@@]9(C)O)CC[C@]78C)[C@@]6(CO)C(=O)O)C5CC[C@]43C)[C@@H]2[C@]1(C)O (some centres undefined) ... 17.7% [at 6.55 µM] (inactive)
9) CC(=O)C1=C(C)N(c2cccc(C(F)(F)F)c2)C(=O)N[C@H]1c1ccc(C#N)nc1 ... 12.1% [at 11.6 µM] (inactive)
10) C[C@@H]1O[C@@H](O[C@@H]2[C@@H](O[C@@H]3O[C@@H](C)[C@H](O[C@@H]4OC[C@H](O)[C@H](O[C@@H]5OC[C@@H](O)[C@H](O)[C@H]5O)[C@H]4O)[C@@H](O[C@@H]4OC[C@](O)(CO)[C@H]4O)[C@H]3O)[C@H](OC(=O)[C@]34CCC(C)(C)C[C@H]3C3=CCC5[C@@]6(C)C[C@H](O)[C@H](O[C@@H]7O[C@H](CO[C@@H]8OC[C@H](O)[C@H](O)[C@H]8O)[C@@H](O)[C@H](O)[C@H]7O)C(C)(C)C6CC[C@@]5(C)[C@]3(C)C[C@H]4O)OC[C@H]2O)[C@H](O)[C@H](O)[C@H]1O (some centres undefined) ... 4.47% [at 6.55 µM] (inactive)
11) COCC1OC(OC(C)(C)C2CCC3(C)C=C(C4CCC5C4(C)CC(O)C4OC(C(C)(C)OC6OC(CO)C(O)C(O)C6NC(C)=O)CCC45C)CCC3O2)C(NC(C)=O)C(O)C1O (centres undefined) ... 9.88% [at 11.6 µM] (inactive)
12) C[C@@H]1O[C@@H](O[C@H]2[C@H](OC(=O)[C@]34CCC(C)(C)C[C@H]3C3=CCC5[C@@]6(C)C[C@H](O)[C@H](O[C@@H]7O[C@H](CO)[C@@H](O[C@H]8OC[C@](O)(CO)[C@H]8O)[C@H](O)[C@H]7O)[C@@](C)(CO)C6[C@H](O)C[C@@]5(C)[C@]3(C)C[C@H]4O)OC[C@H](O)[C@@H]2O)[C@H](O)[C@H](O)[C@H]1O[C@@H]1OC[C@@H](O)[C@H](O[C@@H]2OC[C@](O)(CO)[C@H]2O)[C@H]1O (some centres undefined) ... 13.1% [at 6.55 µM] (inactive)
13) C[C@@H]1O[C@@H](O[C@H]2[C@H](O[C@H]3[C@H](O[C@H]4CC[C@@]5(C)C(CC[C@]6(C)C5CC=C5[C@@H]7CC(C)(C)C[C@@H](O)[C@]7(C)CC[C@]56C)[C@@]4(C)CO)O[C@H](C(=O)O)[C@@H](O)[C@@H]3O)OC[C@H](O)[C@@H]2O)[C@H](O)[C@H](O)[C@H]1O (some centres undefined) ... -7.2% [at 11.6 µM] (inactive)
14) CC(C)=CCC/C(C)=C/CC/C(C)=C/COC1OC(COC2OCC(OC3OCC(O)C(O)C3O)C(O)C2O)C(O)C(OC2OC(C)C(OC3OC(C)C(OC4OCC(OC5OC(C)C(O)C(O)C5O)C(O)C4O)C(O)C3O)C(O)C2O)C1O (centres undefined) ... -3.45% [at 6.55 µM] (inactive)
